Test: log k′ (degree of lipophilic character) by gradient HPLC
Format: physicochemical
Details: XTerra MS C18 column; acetonitrile/pH6.8 buffer gradient 5:95-95:5/20 min

- structure.notation: "COC(=O)NC(C)(C)/C=C/n1ncc(C(=O)N[C@H]2C3CCCC2C[C@@H](COC(N)=O)C3)c1OCC(C)C"
  log k′: 0.913
- structure.notation: "CC(=O)NC(C)(C)CCn1ncc(C(=O)N[C@H]2C3CC4CC2C[C@](OC(N)=O)(C4)C3)c1OCC(C)C"
  log k′: 0.831
- structure.notation: "CC(C)COc1c(C(=O)N[C@H]2C3CC4CC2C[C@](O)(C4)C3)cnn1/C=C/C(C)(C)NC(=O)C1CCCC1"
  log k′: 0.921
- structure.notation: "CC(=O)NCC(C)(C)/C=C/n1ncc(C(=O)N[C@H]2C3CC4CC2C[C@](O)(C4)C3)c1OCC(C)C"
  log k′: 0.814
- structure.notation: "COCC(=O)NC(C)(C)/C=C/n1ncc(C(=O)N[C@H]2C3CC4CC2C[C@](OC(N)=O)(C4)C3)c1OCC(C)C"
  log k′: 0.882
- structure.notation: "CC(C)COc1c(C(=O)N[C@H]2C3CC4CC2C[C@](OC(N)=O)(C4)C3)cnn1/C=C/C(C)(C)C(=O)NC(N)=O"
  log k′: 0.866
- structure.notation: "CC(=O)NC(C)(C)/C=C/n1ncc(C(=O)N[C@H]2C3CC4CC2C[C@](C(=O)NC(N)=O)(C4)C3)c1OCC(C)C"
  log k′: 0.82
- structure.notation: "CC(=O)NC(C)(C)CCn1ncc(C(=O)N[C@H]2C3CC4CC2C[C@](COC(N)=O)(C4)C3)c1OCC(C)C"
  log k′: 0.852
- structure.notation: "CCC(=O)NC(C)(C)/C=C/n1ncc(C(=O)N[C@H]2C3CCCC2C[C@@H](CO)C3)c1OCC(C)C"
  log k′: 0.866
- structure.notation: "CC(C)COc1c(C(=O)NC2CCCCCCCCC2)cnn1/C=C/C(C)(C)C(N)=O"
  log k′: 1.014
- structure.notation: "CC(C)COc1c(C(=O)N[C@H]2C3CC4CC2C[C@](OC(N)=O)(C4)C3)cnn1/C=C/C(C)(C)NC(=O)CCc1ccccc1"
  log k′: 0.946
- structure.notation: "CC(=O)NC(C)(C)/C=C/n1ncc(C(=O)NC23CCC(C(N)=O)(CC2)C3)c1OCC(C)C"
  log k′: 0.763
- structure.notation: "CC(C)COc1c(C(=O)N[C@H]2C3CC4CC2C[C@](COC(N)=O)(C4)C3)cnn1/C=C/C(C)(C)CO"
  log k′: 0.896
- structure.notation: "CCC(=O)NC(C)(C)/C=C/n1ncc(C(=O)N[C@H]2C3CCCC2C[C@@H](COC(N)=O)C3)c1OCC(C)C"
  log k′: 0.882
